# target system: hERG K+ channel (Homo sapiens, UniProt Q12809)
# Construct: gene KCNH2; expressed in HEK293 cells (Cyprotex), automated patch clamp
# Sequence (Q12809 whole entry): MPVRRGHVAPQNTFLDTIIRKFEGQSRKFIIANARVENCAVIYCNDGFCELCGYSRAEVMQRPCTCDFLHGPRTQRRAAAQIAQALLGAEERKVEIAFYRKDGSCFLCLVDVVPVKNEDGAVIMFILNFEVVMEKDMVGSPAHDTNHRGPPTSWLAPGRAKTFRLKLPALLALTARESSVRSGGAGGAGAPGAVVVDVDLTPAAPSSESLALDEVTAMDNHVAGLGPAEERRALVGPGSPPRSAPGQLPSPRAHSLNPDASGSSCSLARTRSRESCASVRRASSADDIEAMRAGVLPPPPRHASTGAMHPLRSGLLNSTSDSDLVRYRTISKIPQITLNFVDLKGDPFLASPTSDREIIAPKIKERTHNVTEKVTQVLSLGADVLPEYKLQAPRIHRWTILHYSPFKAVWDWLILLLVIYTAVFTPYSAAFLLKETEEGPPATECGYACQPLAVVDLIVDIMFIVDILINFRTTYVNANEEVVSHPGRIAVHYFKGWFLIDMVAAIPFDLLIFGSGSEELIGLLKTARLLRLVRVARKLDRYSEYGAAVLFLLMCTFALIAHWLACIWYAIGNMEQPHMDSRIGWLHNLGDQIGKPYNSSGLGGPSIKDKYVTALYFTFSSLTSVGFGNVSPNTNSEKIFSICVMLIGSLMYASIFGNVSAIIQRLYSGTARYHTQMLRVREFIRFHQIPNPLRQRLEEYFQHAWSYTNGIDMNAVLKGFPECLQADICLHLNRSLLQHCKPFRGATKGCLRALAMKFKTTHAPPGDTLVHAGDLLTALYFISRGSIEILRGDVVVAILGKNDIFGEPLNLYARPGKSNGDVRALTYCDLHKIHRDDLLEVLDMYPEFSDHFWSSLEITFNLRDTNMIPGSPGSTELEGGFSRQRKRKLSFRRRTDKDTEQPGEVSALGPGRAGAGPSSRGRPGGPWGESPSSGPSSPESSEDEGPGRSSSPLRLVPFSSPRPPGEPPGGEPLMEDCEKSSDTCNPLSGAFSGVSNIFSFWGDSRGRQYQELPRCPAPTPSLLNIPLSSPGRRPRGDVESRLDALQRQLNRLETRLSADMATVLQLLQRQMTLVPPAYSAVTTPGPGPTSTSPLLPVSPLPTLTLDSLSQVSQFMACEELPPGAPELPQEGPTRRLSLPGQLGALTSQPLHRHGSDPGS
# protocol: automated whole-cell patch clamp, HEK293, tail current
# Assay type: cell-based
# stated conditions: hek293 cells
pIC50: −log10 of the molar value.
readout type: pIC50

Incoming: System hERG K+ channel (Homo sapiens, UniProt Q12809). Read-out pIC50. Item CN1C(=O)c2ccccc2[S@+]([O-])c2ccc(C(=O)NCCc3cccs3)cc21 [ML321] . Report value.
Outgoing: < 4.60
